target: His-tagged recombinant human Gal-3 (hGal-3) (Homo sapiens, UniProt P17931); experiment: Gal-3 HTRF assay (hGal-3 / B-ASF binding inhibition); settings: Examples 26 to 29 and 66 to 68; HTRF, 15 nM hGal-3, 15 nM B-ASF
Sequence (P17931 whole entry): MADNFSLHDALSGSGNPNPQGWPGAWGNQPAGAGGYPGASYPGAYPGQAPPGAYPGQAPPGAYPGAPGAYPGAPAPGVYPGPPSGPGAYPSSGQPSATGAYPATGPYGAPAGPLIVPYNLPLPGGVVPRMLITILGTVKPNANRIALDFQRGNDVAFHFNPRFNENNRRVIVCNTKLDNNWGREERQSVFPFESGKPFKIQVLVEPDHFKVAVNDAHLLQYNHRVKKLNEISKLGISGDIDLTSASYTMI
Reported pIC50 values follow for various compounds
Conceptually, pIC50 converts a concentration in mol/L into minus its log10.

compound	pIC50
OC[C@H]1O[C@@H](c2nncn2-c2cc(Cl)ccc2C(F)(F)F)[C@H](O)[C@@H](n2cc(-c3ccc(Br)c(F)c3F)nn2)[C@H]1O	8.00

Task: Need pIC50, item Cn1nc([C@@H]2O[C@H](CO)[C@H](O)[C@H](n3cc(-c4ccc(Br)c(F)c4F)nn3)[C@H]2O)n(-c2cc(Cl)ccc2C(F)(F)F)c1=S [Example 67]
Result: 8.03

Task: Any idea what pIC50 was measured for OC[C@H]1O[C@@H](c2n[nH]c(=S)n2-c2cc(Cl)ccc2C(F)(F)F)[C@H](O)[C@@H](n2cc(-c3ccc(Br)c(F)c3F)nn2)[C@H]1O (single isomer, unassigned) [Example 27] ?
Result: 7.12

====

Each item that follows carries a reported pIC50.
Molecular target: His-tagged recombinant human Gal-3 (hGal-3) (Homo sapiens)
Assay: Gal-3 HTRF assay (hGal-3 / B-ASF binding inhibition)
Details: table of Examples 69 to 75
Protocol: ASSAY BUFFER Composition: 25 mM HEPES, 100 mM NaCl, 0.005% Tween 20, 0.05% BSA prepared in sterile water (all reagents from Sigma). […] PROTOCOL: The Gal-3 assays were performed in 384 white Opti plates in three replicates at room temperature with gentle shaking at 250-300 rpm From the original stocks, […] working stock concentrations of His-tagged recombinant human Gal-3 (hGal-3) and that of B-ASF were prepared. […] Data analysed using Toolset and Curve Master. […]
API: returns pIC50 as number; meaning -log10 of concentration in mol/L.

Cc1nc2ccc(-n3cnnc3[C@@H]3O[C@H](CO)[C@H](O)[C@H](n4cc(-c5cc(F)c(Cl)c(Cl)c5)nn4)[C@H]3O)cc2s1 7.46
Cc1nc2ccc(-n3cnnc3[C@@H]3O[C@H](CO)[C@H](O)[C@H](n4cc(-c5cc(F)c(Cl)c(Cl)c5)nn4)[C@H]3OCC(=O)O)cc2s1 7.74
Cc1nc2ccc(-n3cnnc3[C@@H]3O[C@H](CO)[C@H](O)[C@H](n4cc(-c5cc(F)c(Cl)c(F)c5)nn4)[C@H]3OCC(=O)O)cc2s1 7.80
Cc1nc2ccc(-n3cnnc3[C@@H]3O[C@H](CO)[C@H](O)[C@H](n4cc(-c5ccc(Br)c(F)c5F)nn4)[C@H]3OCC(F)F)cc2s1 7.70
OC[C@H]1O[C@@H](c2nncn2-c2ccc3ncsc3c2)[C@H](OCC(F)F)[C@@H](n2cc(-c3ccc(Br)c(F)c3F)nn2)[C@H]1O 7.96
CNCCN(C)C(=O)CO[C@@H]1[C@@H](n2cc(-c3cc(F)c(Cl)c(F)c3)nn2)[C@@H](O)[C@@H](CO)O[C@H]1c1nncn1-c1ccc2nc(C)sc2c1 7.27

Then this compound:
Task: Lab request: please report pIC50 under test system His-tagged recombinant human Gal-3 (hGal-3) (Homo sapiens) for OC[C@H]1O[C@@H](c2nncn2-c2cc(Cl)cc3cccnc23)[C@H](OCC(F)F)[C@@H](n2cc(-c3cc(F)c(Br)c(F)c3)nn2)[C@H]1O
Result: 6.89

# credit: patent US12275719B2
